FYI, the data here is from patent US20240043706A1.

assay: Specific gravity of polymerizable monomer (gravimeter); type: physicochemical
Quick reference for Specific gravity among some compounds

# Compound, Unit Descriptor, Specific gravity
records = [
    ("C=CC(=O)OCCOCCOCCOC(=O)C=C", "g/mL", 1.05),
    ("C=CC(=O)OCCCCCCCC(C)C [Isodecyl acrylate]", "g/mL", 0.88),
    ("C=COCCOCCOCCOC=C", "g/mL", 1.00),
    ("C=CC(=O)OCCCCCCC(C)C [Isononyl acrylate]", "g/mL", 0.885),
    ("C=CC(=O)OCCCCCCCCCCOC(=O)C=C [Decanediol diacrylate]", "g/mL", 0.968),
    ("C=CC(=O)OCC1(CC)COCOC1 [CTFA]", "g/mL", 1.09),
    ("C=CC(=O)OCCCCCCCCCCCCCCCC(C)C [Isostearyl acrylate]", "g/mL", 0.871),
    ("C=CC(=O)N(C)C [N,N-Dimethylacrylamide]", "g/mL", 0.964),
    ("C=CC(=O)OCCCCCCCCCCCC [Lauryl acrylate]", "g/mL", 0.875),
    ("C=CC(=O)NC(C)C [N-Isopropyl acrylamide]", "g/mL", 0.89),
    ("C=CC(=O)OCCCCCCCCCCCCCCCCCC [Stearyl acrylate]", "g/mL", 0.86),
    ("C=CC(=O)OCCC(C)CCOC(=O)C=C", "g/mL", 1.03),
    ("C=CC(=O)OCCCCO", "g/mL", 1.04),
    ("C=CC(=O)OCCCCCCCC [n-Octyl acrylate]", "g/mL", 0.894),
    ("C=CC(=O)O[C@@H]1C[C@H]2CC[C@]1(C)C2(C)C [Isobornyl acrylate]", "g/mL", 0.987),
    ("C=CC(=O)OCCCCCCCCC [Nonyl acrylate]", "g/mL", 0.875),
    ("C=CC(=O)OC1CCCCC1 [Cyclohexyl acrylate]", "g/mL", 0.98),
]
